Kindly state IC50 for each of the entries shown.
- EXPERIMENT SUMMARY: Cytotoxicity against African green monkey Vero cells assessed as cell growth inhibition by GFP fluorescence based assay
- Format: toxicity
- CONDITION SUMMARY: African green monkey (Chlorocebus sabaeus)
Give bare numbers, in µM.

See these solved cases before continuing.
{"COMPOUND STRUCTURE STRING": "Cc1c2ccncc2c(C)c2c1[nH]c1ccccc12", "MEASURED RESULT": 2.9}
{"COMPOUND STRUCTURE STRING": "C[C@H](CC(=O)C[C@H](C)C(=O)O[C@@H](CC[C@@H](C)[C@H]1C[C@H](O)[C@@]2(C)C3=C(CC[C@]12C)[C@@]1(C)CCC(=O)C(C)(C)[C@@H]1CC3)[C@](C)(O)CO)[C@H]1C[C@@H](O)[C@@]2(C)C3=C(C(=O)C[C@]12C)[C@@]1(C)CCC(=O)C(C)(C)[C@@H]1CC3=O", "MEASURED RESULT": 8.1}

Input: Any idea what its IC50 is? The molecule is `C[C@H](CC[C@H](OC(=O)[C@@H](C)CC(=O)C[C@@H](C)[C@H]1C[C@@H](O)[C@@]2(C)C3=C(C(=O)C[C@]12C)[C@@]1(C)CC[C@@H](O)C(C)(C)[C@@H]1CC3=O)[C@](C)(O)CO)[C@H]1CC[C@@]2(C)C3=C(CC[C@]12C)[C@@]1(C)CCC(=O)C(C)(C)[C@@H]1C[C@H]3O`
Output: 2.3
